These data points were gathered from paper PMC5320518.

Answer each item with its documented melting point.

INSERT INTO assay_data (molecule, value_reported) VALUES
  ('CC(C)(C)OC(=O)C[C@H](NC(=O)OC(C)(C)C)C(=O)OC1CCN(C(=O)[C@H](Cc2ccc(F)cc2)NC(=O)c2cc3cc(Cl)ncc3[nH]2)CC1', '118 to 120 °C');

Dear colleague, could you send me melting point for each of the items below? Thanks.
1. C[C@H](CCC(=O)N[C@@H](CO)C(=O)OC1CCN(C(=O)[C@H](Cc2ccc(F)cc2)NC(=O)c2cc3cc(Cl)ncc3[nH]2)CC1)[C@H]1CC[C@H]2[C@@H]3[C@H](O)C[C@@H]4C[C@H](O)CC[C@]4(C)[C@H]3C[C@H](O)[C@]12C [Conjugate 5]
2. CC(CCC(=O)NC(Cc1ccccc1)C(=O)NC(CCCCNC(=O)OCC1c2ccccc2-c2ccccc21)C(=O)OC1CCN(C(=O)C(Cc2ccc(F)cc2)NC(=O)c2cc3cc(Cl)ncc3[nH]2)CC1)C1CCC2C3C(O)CC4CC(O)CCC4(C)C3CC(O)C12C (stereo not shown)
3. O=C(CCc1ccccc1/N=N/c1ccc(C(=O)O)cc1)OC1CCN(C(=O)[C@H](Cc2ccc(F)cc2)NC(=O)c2cc3cc(Cl)ncc3[nH]2)CC1

175 to 177 °C
149 to 151 °C
127 to 129 °C
